Tested on: SARS-CoV-2
Condition Context: 96 h, 50 μM
No end group written: not given here.
For each entry below, report its Inhibition % value.
Respond with the bare value in %.

The substance Ac-RVTQMNLNDRLASLYDKV [SEQ ID NO: 2] showed Inhibition % equal to 95.1

Entry RVTQMNLNDRLASLYDKV [SEQ ID NO: 1] , Inhibition % reported as 83.3

So, NDRLASLYDKV [SEQ ID NO: 14] ? Its Inhibition % was 83.2

// sample NLNDRLASLYDKV [SEQ ID NO: 15] , its Inhibition % was 87.1

====

Tgt: pAb anti-SEQ ID NO: 1
Assay Details: BIACORE surface plasmon resonance interaction with immobilized peptide
Type: binding, rabbit
No end group written: not given here.
Reported Endpoint: Kd (nM)
Give your result in nM as a bare value.

response.value for RVTQMNLNDRLASLYDKV [SEQ ID NO: 1] (field: Kd) = 115

====

Test system: Dengue 2 virus
Assay Details: Dengue 2 virus replication in primary cultures of lung cells (PFU in VeroE6)
Type: cell-based
Condition Context: 50 μM, 48 hours
No end group written: not given here.
Give Dengue 2 Inhib. % for every item shown.
Write the value in % as a bare number.

Short answer for Ac-RVTQMNLNDRLASLYDKV [SEQ ID NO: 2] : Dengue 2 Inhib. % was 88

Record NDRLASLYDKV [SEQ ID NO: 14] , field Dengue 2 Inhib. %: 70

Value of Dengue 2 Inhib. % reported for the substance RVTQANLNDRLASLYDKV [SEQ ID NO: 8] is 72

Sure, the documented Dengue 2 Inhib. % for SEQ ID NO: 19: synthetic peptide related to SEQ ID NO: 1, obtained by solid phase synthesis (RVTQMNLNDRLASLYDKV; Description of the Artificial Sequence synthetic peptide where N6 is a D amino acid) is 68
